System: OVCAR-4 ovarian
PROTOCOL NOTES: NCI tumour cell line growth inhibition, 48 h
Overview of recorded TGI for various compounds

{"COMPOUND": "N#Cc1c(-c2ccccc2)/c(=C\\Nc2ccc(Cl)cc2)c(=O)n2c1nc1ccccc12", "TGI": "> 100 µM"}
{"COMPOUND": "COc1ccc(/C(=N/O)c2ccccc2-c2nc3ccccc3c(=O)n2-c2ccc(S(=O)(=O)Nc3ncccn3)cc2)cc1C", "TGI": "> 31.6 µM"}
{"COMPOUND": "O=C(O)C1CC(c2ccc(F)cc2)=Nc2ccc(F)cc2S1 (stereo not drawn)", "TGI": "> 100 µM"}
{"COMPOUND": "COc1cc(/C=C2\\C(=O)N(C(=O)Cc3ccccc3)N=C2C)ccc1O", "TGI": "> 100 µM"}
{"COMPOUND": "COc1ccc2c(c1)C(O)(C(F)(F)F)c1cc(C(=O)C(F)(F)F)c3ccccc3c1N2 (stereo not drawn)", "TGI": "22.4 µM"}
{"COMPOUND": "COc1ccc(-c2cc(=O)c3cc4c(cc3[nH]2)OCO4)c(OC)c1OC", "TGI": "> 100 µM"}
{"COMPOUND": "N#Cc1cnc2cc(OC[C@H](O)CO)c(NC(=O)CC3CSSC3)cc2c1Nc1ccc(OCc2cccc(F)c2)c(Cl)c1", "TGI": "1.57 µM"}
{"COMPOUND": "CCCC[C@H](NC(=O)[C@H]1CCCN1C)C(=O)N(C)[C@H](C[C@@H](OC(C)=O)c1nc(C(=O)N[C@@H](Cc2ccccc2)C[C@H](C)C(=O)OCC)cs1)C(C)C", "TGI": "> 33.3 µM"}
{"COMPOUND": "COC(=O)/C=C/C=C(c1ccccc1)c1ccccc1", "TGI": "> 100 µM"}
{"COMPOUND": "Oc1ccc(-c2nnc3sc(-c4ccc(F)cc4)nn23)cc1", "TGI": "> 100 µM"}
{"COMPOUND": "O=C1c2ccccc2CN1c1ccc(O)cc1", "TGI": "> 100 µM"}
{"COMPOUND": "COC1(C(=O)N[C@@H](C)c2ccc(-n3cc(F)cn3)nc2)CCC(c2nc(C)cc(Nc3cc(C)[nH]n3)n2)CC1 (stereo partly drawn)", "TGI": "17.9 µM"}
{"COMPOUND": "C=C1C(=O)O[C@H]2[C@H]1[C@H](OC(=O)/C(C)=C\\C)CC(=C)[C@@H]1[C@H](O)[C@H]3O[C@@]3(C)[C@@]12O", "TGI": "> 100 µM"}
{"COMPOUND": "COc1cc(C2c3cc4c(cc3OC(NN=C(C)C)C2C)OCO4)cc(OC)c1O (stereo not drawn)", "TGI": "> 100 µM"}
{"COMPOUND": "O=c1cc(/C=C/c2ccc(O)c(O)c2)oc(/C=C/c2ccc(O)c(O)c2)c1", "TGI": "11.7 µM"}
{"COMPOUND": "C[N+](C)(C)CC(=O)N/N=C(/Cc1nc2c3c(ccc2[nH]c1=O)C(=O)c1ccccc1C3=O)C(=O)Nc1ccc(Cl)c(Cl)c1", "TGI": "> 100 µM"}
{"COMPOUND": "N#Cc1nc(-c2cc([N+](=O)[O-])cc([N+](=O)[O-])c2)oc1N", "TGI": "> 10 µM"}
{"COMPOUND": "CC(C)(C)C[C@H]1NC(C(=O)NCC[C@H](O)CO)[C@H](c2cccc(Cl)c2)[C@@]12C(=O)Nc1cc(Cl)c(F)cc12 (stereo partly drawn)", "TGI": "32.4 µM"}
